Recorded measurements of pIC50, one per entry
test system: CCRF-CEM; test: Antiproliferative activity against human CEM cells assessed as inhibition of cell growth; format: functional, cell-based
In simple prose, pIC50 is minus the logarithm base ten of a concentration in moles per litre.

| entry-smiles | pIC50 |
| --- | --- |
| CCN(CC)c1ccc2cc(-c3nc4cccnc4s3)c(=N)oc2c1 | 6.77 |

Field: next molecule
Ask: Quick one: pIC50 of CCN(CC)c1ccc2cc(-c3nc4ccccc4[nH]3)c(=N)oc2c1 ?
Result: 7.23

====

experiment: Cytotoxicity against human HEL 299 cells assessed as inhibition of cell growth incubated for 72 hrs by CellTiter96 Aqueous One Solution cell proliferation assay; type: toxicity, cell-based
Recorded measurements of log10(CC50 at 72 h), one per entry
Response schema: value (number) is log10 of CC50 at 72 h in units of µM.

The examples below pair each entry with its known result.
| entry-smiles | observable | measured-value |
| --- | --- | --- |
| Cc1ccc2oc(=O)c(-c3nc4cc(C5=NCCN5)ccc4[nH]3)c(Cl)c2c1 | log10(CC50 at 72 h) | 1.89 |
| O=c1oc2ccccc2c(Cl)c1-c1nc2cc(C3=NCCCN3)ccc2[nH]1 | log10(CC50 at 72 h) | 1.94 |
| O=c1oc2ccc(Br)cc2c(Cl)c1-c1nc2cc(C3=NCCN3)ccc2[nH]1 | log10(CC50 at 72 h) | 1.71 |
| CCN(CC)c1ccc2cc(-c3nc4cc(C5=NCCN5)ccc4[nH]3)c(=O)oc2c1.Cl | log10(CC50 at 72 h) | 0.71 |

Field: next molecule
Ask: Quick one: log10(CC50 at 72 h) of O=c1oc2ccccc2c(Cl)c1-c1nc2cc(C3=NCCN3)ccc2[nH]1 ?
Result: 2.00

====

assay: Cytotoxicity against human PBMC cells assessed as reduction in cell viability measured after 72 hrs by CellTiter96 Aqueous One Solution cell proliferation assay; type: toxicity, cell-based
observable: IC50 at 72 h (nM)
Field format: number, assumed nM, no unit text.

| entry-smiles | unit-name | measured-value |
| --- | --- | --- |
| CCN(CC)c1ccc2cc(-c3nc4ccc(C5=NCCCN5)cc4s3)c(=O)oc2c1.Cl | nM | 1700 |

Field: next compound
Ask: Quick one: IC50 at 72 h of CCN(CC)c1ccc2cc(-c3nc4cc(C5=NCCN5)ccc4[nH]3)c(=O)oc2c1.Cl ?
Result: 1600

====

test system: Zika virus; assay: Antiviral activity against Zika virus Mr776 infected in human Huh-7 cells assessed as inhibition of virus-induced cytopathogenic effect incubated for 3 to 7 days by MTS assay; format: functional, organism-based; conditions: Mr776, Huh-7
pEC50: −log10 of the molar value.
observable: pEC50

The examples below pair each entry with its known result.
| compound | observable | measured-value |
| --- | --- | --- |
| CCN(CC)c1ccc2cc(-c3nc4ccc(C5=NCCCN5)cc4s3)c(=O)oc2c1.Cl | pEC50 | < 4.00 |
| O=c1oc2ccccc2c(Cl)c1-c1nc2cc(C3=NCCN3)ccc2[nH]1 | pEC50 | < 4.00 |
| Cc1ccc2oc(=O)c(-c3nc4cc(C5=NCCCN5)ccc4[nH]3)c(Cl)c2c1 | pEC50 | < 4.00 |
| Cc1ccc2oc(=O)c(-c3nc4cc(C5=NCCN5)ccc4[nH]3)c(Cl)c2c1 | pEC50 | < 4.00 |
| O=c1oc2ccc(Br)cc2c(Cl)c1-c1nc2cc(C3=NCCCN3)ccc2[nH]1 | pEC50 | 5.03 |

Ask: Quick one: pEC50 of CCN(CC)c1ccc2cc(-c3nc4ccc(C5=NCCN5)cc4s3)c(=O)oc2c1 ?
Result: < 4.00

Ask: Quick one: pEC50 of CCN(CC)c1ccc2cc(-c3nc4cc(C5=NCCCN5)ccc4[nH]3)c(=O)oc2c1 ?
Result: 4.11
